# Assayed system: UniProtKB Q92830
# Sequence (Q92830 whole entry): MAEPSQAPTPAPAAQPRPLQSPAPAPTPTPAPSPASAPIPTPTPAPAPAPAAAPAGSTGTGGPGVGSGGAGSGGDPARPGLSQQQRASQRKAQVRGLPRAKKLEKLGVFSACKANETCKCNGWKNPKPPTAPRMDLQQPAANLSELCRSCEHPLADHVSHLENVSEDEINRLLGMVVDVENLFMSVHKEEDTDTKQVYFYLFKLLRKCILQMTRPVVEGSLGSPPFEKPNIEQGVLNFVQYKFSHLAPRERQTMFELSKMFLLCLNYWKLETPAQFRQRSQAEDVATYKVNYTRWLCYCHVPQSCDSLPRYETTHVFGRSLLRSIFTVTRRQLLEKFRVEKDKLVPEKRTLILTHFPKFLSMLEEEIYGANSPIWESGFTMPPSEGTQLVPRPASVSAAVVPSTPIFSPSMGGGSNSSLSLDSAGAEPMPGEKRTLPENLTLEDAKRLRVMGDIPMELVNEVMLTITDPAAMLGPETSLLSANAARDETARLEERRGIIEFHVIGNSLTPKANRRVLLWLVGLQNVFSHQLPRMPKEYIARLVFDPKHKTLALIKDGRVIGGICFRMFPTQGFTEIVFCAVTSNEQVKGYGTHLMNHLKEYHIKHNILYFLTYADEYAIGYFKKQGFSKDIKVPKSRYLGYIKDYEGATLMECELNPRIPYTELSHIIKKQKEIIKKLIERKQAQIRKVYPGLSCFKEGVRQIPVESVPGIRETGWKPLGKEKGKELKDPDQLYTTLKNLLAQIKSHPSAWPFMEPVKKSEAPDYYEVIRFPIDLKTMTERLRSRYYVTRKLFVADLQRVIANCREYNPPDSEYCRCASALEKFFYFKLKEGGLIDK
# Test protocol: KAT2A degradation, Western Blot (Jess), NCI-H1048 cells
# Format: cell-based
# Design: degrader, Western blot (Jess)
# Condition details: NCI-H1048 cells, KAT2A, 24 h, Western Blot, vs DMSO; read-out: KAT2A NCI-H1048 DC50
Reported DC50 values for a set of compounds

{"Compound": "CN1C[C@H](Nc2cnn(C)c(=O)c2Cl)C[C@H](c2ccc(C(=O)N3CCC(Cc4ccc(N5CCC(=O)NC5=O)c(F)c4)CC3)cc2)C1", "DC50": "< 1 nM"}
{"Compound": "Cc1c(N[C@@H]2C[C@H](c3ccc(CN4CCN(c5ccnc(C6CCC(=O)NC6=O)c5)CC4)cc3)CN(C)C2)cnn(C)c1=O (some centres unmarked)", "DC50": "1 to 30 nM"}
{"Compound": "Cc1cc(N2CCC3(CCN(C(=O)c4ccc([C@H]5C[C@@H](Nc6cnn(C)c(=O)c6Br)CN(C)C5)cc4)CC3)CC2)c(F)cc1C1CCC(=O)NC1=O (some centres unmarked)", "DC50": "1 to 30 nM"}
{"Compound": "CN1C[C@H](Nc2cnn(C)c(=O)c2Br)C[C@H](c2ccc(C(=O)N3CCC4(CC3)CCN(c3ncc(C5CCC(=O)NC5=O)cn3)CC4)cc2)C1 (some centres unmarked)", "DC50": "< 1 nM"}
{"Compound": "CCn1ncc(N[C@@H]2C[C@H](c3ccc(C(=O)N4CCC5(CC4)CCN(c4ccc(C6CCC(=O)NC6=O)c(C)c4)CC5)cc3)CN(C)C2)c(Br)c1=O (some centres unmarked)", "DC50": "< 1 nM"}
{"Compound": "Cc1cc(N2CCC3(CCN(C(=O)c4ccc([C@H]5C[C@@H](Nc6cnn(C)c(=O)c6C)CN(C)C5)cc4)CC3)CC2)ccc1C1CCC(=O)NC1=O (some centres unmarked)", "DC50": "< 1 nM"}
{"Compound": "CN1C[C@H](Nc2cnn(C)c(=O)c2Br)C[C@H](c2ccc(C(=O)N3CCC4(CC3)CCN(c3ccc(C5CCC(=O)NC5=O)cc3)CC4)cc2)C1 (some centres unmarked) [Compound 90]", "DC50": "< 1 nM"}
{"Compound": "CN1C[C@H](Nc2cnn(C)c(=O)c2Br)C[C@H](c2ccc(C(=O)N3CCC4(CC3)CCN(c3ccc(C5CCC(=O)NC5=O)cc3)CC4)cc2)C1 (single isomer, unassigned) [Compound 239]", "DC50": "< 1 nM"}
{"Compound": "COc1cc(N2CCC3(CCN(C(=O)c4ccc([C@H]5C[C@@H](Nc6cnn(C)c(=O)c6Cl)CN(C)C5)cc4)CC3)CC2)cc(C)c1C1CCC(=O)NC1=O (some centres unmarked)", "DC50": "< 1 nM"}
{"Compound": "Cc1c(N2CCC3(CCN(C(=O)c4ccc([C@H]5C[C@@H](Nc6cnn(C)c(=O)c6C)CN(C)C5)cc4)CC3)CC2)ccc(C2CCC(=O)NC2=O)c1F (some centres unmarked)", "DC50": "< 1 nM"}
{"Compound": "Cc1cc(N2CCC3(CCN(C(=O)c4ccc([C@H]5C[C@@H](Nc6cnn(C)c(=O)c6Br)CN(C)C5)cc4)CC3)CC2)ccc1C1CCC(=O)NC1=O (some centres unmarked) [Compound 167]", "DC50": "< 1 nM"}
{"Compound": "CN1C[C@H](Nc2cnn(C)c(=O)c2Br)C[C@H](c2ccc(CN3CC(c4ccc(C5CCC(=O)NC5=O)cc4)C3)cc2)C1 (some centres unmarked)", "DC50": "1 to 30 nM"}
{"Compound": "CN1C[C@H](Nc2cnn(C)c(=O)c2Cl)C[C@H](c2ccc(CN3CCN(c4cccc(CN5CCC(=O)NC5=O)c4)CC3)cc2)C1", "DC50": "> 30 nM"}
{"Compound": "Cc1cc(N2CCC3(CCN(C(=O)c4ccc([C@H]5C[C@@H](Nc6cnn(C)c(=O)c6Br)CN(C)C5)cc4)CC3)CC2)cnc1C1CCC(=O)NC1=O (some centres unmarked)", "DC50": "< 1 nM"}
